src = patent US20260028391A1

Target: fusion glycoprotein of the RSV used in the neutralization assay of Example 1 (respiratory syncytial virus (strain not …))
Experiment: cell-based or functional assay
Listed below: RSV Neutralization - IC50 values for each entry.
Write down the numeric answer in µg/mL and omit the unit.

Here is how some binders turned out for RSV Neutralization - IC50.
binder	value.units	RSV Neutralization - IC50
MPK130 (antibody, V domains shown) VH: EVQLVESGGGLVKPGGSLTLSCEASGFSISGYYMIWVRQAPGKGLEWVSSISASDTYIDYAVSVQGRFTISRHNTKNSLYLQMSSLRVEDTGVYYCTREKVPSPGPFDCWGQGTLVTVSS VL: QSVLTQPPSVSGAPGQRITISCTGTSSNIGAGYDVHWYQHLPGAAPRLLIYVNTNRPSGVPDRFSGARSGTSASLAITGLQAEDEADYYCQSYDRSLGGWAFGEGTKVTVL	µg/mL	0.0206
MPK133 (antibody, V domains shown) VH: QVQLVQSGGGLVKPGGSLRLSCAASEFSFSGYFMIWIRQAPGKGLEWISYISGSSTYTNYADSVKGRFTISRDNAQNTLYLEMNSLRAEDTGVYYCATEQVPSPGPFDLWGQGTLVTVSS VL: QSVLTQPPSVSGAPGQRVTISCTGSSSNIGAGYDVHWYQQFPGRSPTLLIYRNTNRPSGVPDRFSGSQSGSSASLAITGLQAEDEADYYCQSYDRTLSGWAFGGGTKVTVL	µg/mL	0.0211
MPK146 (antibody, V domains shown) VH: QVQLVESGGGLVKPGGSLRLSCAASGFTFSGYYMIWIRQAPGKGLEWIASISGSSNYIDYADSVRGRFTISRDNARNILDLQMNSLRAGDTALYYCATEQVPSPGPFDLWGQGTLVTVSS VL: QSVLTQPPSVSGAPGQRVTISCTGSNSNLGAGYDVHWYQQFPGTSPKLLIYRNTNRPSGVPDRFAGSKSGTSASLAITGLQAEDEADYYCQSYDRSLSGWVFGGGTKLTVL	µg/mL	0.0166
MPK169-v2 (antibody, V domains shown) VH: EVQLVQSGAEVKKPGESLTISCQTSGYSFINYWIGWVRQMPGKGLEWMGVIYPFDSDTEYSPSFRGHVTISADKSINTAYLQWNSLGASDTAMYYCARFTFGIALVSGDVNGEGHAFDVWGRGTLVTVSS VL: EIVLTQSPPTLSVSPGQRATLSCRASQSVADKLAWYQQRPGQAPRLLIYGASSRATGVPARFSGSGSETEFTLTITSLQSEDFALYYCHQYNNWPHAFGQGTRLVIK	µg/mL	0.0014
MPK204 (antibody, V domains shown) VH: QVQLVESGGGLVKPGGSLRLSCEASGLSLSGYYMIWIRQAPGKGLEWISSISSSSNYIDYADSVKGRFTISRHNGQNTLYLQMNSLRVEDTAVYYCATEQTPSPGPFDLWGQGTLVTVSS VL: QSVLTQPPSVSGAPGQRVTISCTGTSSNIGTGYDVHWYQQFPGTSPKLLIYRNTNRPSGVPDRFSGSKSGSSASLAIAGLQAEDEADYYCQSYDRSVSGWVFGGGTKLTVL	µg/mL	0.0121

Please examine the following record next.
Task: For the binder shown here, MPK158 (antibody, V domains shown) VH: EVQLVESGGGLVKPGGSLRLSCAASGFSISGFYMIWIRQAPGKGLEWISDISASSSYIDYADSVKGRFTISRDNGQNTVHLLMNNLRADDTGVYYCAREQTPSPGPFDLWGQGTLVTVST VL: QPVLTQPPSVSGAPGQRVTISCTGRSSNIGAGYDVHWYQHLPGTSPKLLIYRNSNRPSGVPDRFSGSTSGTSASLAITGLQADDEADYYCQAYDRILGGWAFGGGTKLTVL , give the reported RSV Neutralization - IC50.
Result: 0.0182
